biological target: T1, cMetECDHis (human, UniProt P08581 25-932, limits assumed, biotinylated in the cross-block ELISA of Example 17); assay: cross-block ELISA; competitor 005
T1 construct: Expressed in HEK-293F cells; also called soluble cMetECDHis; biotinylated cMetECDHis
// NB: equality with 40% counts as No; only residual binding, % of no competitor strictly below is Yes

query: Problem: For the binder anti-c-Met HuMab 098 (IgG1) (antibody, V domains shown, also called TH1016-098; PC1016-098) VH: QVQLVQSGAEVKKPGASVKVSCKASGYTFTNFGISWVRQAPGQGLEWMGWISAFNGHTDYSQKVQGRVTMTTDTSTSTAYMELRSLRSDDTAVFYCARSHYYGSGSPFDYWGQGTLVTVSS VL: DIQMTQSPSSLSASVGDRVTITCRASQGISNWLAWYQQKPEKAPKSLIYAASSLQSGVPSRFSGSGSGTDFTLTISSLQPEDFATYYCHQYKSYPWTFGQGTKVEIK , is residual binding, % of no competitor under 40%?
result: No

query: Problem: For the binder IgG1-1016-058 (antibody, V domains shown, also called IgG1-058; TH1016-058) VH: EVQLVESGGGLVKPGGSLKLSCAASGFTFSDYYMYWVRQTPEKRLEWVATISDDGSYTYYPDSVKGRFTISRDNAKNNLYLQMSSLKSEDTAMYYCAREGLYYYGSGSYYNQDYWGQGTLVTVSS VL: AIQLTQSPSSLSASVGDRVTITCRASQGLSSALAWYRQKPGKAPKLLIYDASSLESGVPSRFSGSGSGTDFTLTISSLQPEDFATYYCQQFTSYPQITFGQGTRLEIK , is residual binding, % of no competitor under 40%?
result: Yes

query: Problem: For the binder IgG1-1016-022 (antibody, V domains shown, also called TH1016-022; PC1016-022) VH: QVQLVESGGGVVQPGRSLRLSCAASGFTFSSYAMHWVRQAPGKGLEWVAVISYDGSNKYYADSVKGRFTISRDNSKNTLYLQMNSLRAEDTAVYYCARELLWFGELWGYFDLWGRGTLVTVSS VL: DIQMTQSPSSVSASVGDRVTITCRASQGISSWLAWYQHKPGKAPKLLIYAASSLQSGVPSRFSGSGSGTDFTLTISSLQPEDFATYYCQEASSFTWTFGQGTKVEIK , is residual binding, % of no competitor under 40%?
result: Yes

query: Problem: For the binder anti-c-Met HuMab 006 (IgG1) (antibody, V domains shown, also called TH1016-006; PC1016-006) VH: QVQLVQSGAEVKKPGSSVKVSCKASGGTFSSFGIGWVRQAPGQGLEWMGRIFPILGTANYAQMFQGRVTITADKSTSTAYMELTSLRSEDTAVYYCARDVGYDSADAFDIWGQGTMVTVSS VL: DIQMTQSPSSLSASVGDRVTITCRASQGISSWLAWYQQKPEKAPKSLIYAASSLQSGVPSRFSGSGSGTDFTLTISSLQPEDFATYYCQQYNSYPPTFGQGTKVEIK , is residual binding, % of no competitor under 40%?
result: Yes

query: Problem: For the binder anti-c-Met HuMab 181 (IgG1) (antibody, V domains shown, also called TH1016-181; PC1016-181) VH: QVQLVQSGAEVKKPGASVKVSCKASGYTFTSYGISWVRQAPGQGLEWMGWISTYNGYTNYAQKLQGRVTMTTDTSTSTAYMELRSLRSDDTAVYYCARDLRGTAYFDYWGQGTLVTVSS VL: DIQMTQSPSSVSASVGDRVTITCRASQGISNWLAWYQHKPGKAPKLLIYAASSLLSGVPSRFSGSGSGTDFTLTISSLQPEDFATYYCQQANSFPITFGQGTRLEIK , is residual binding, % of no competitor under 40%?
result: No

The measured values listed here are drawn from patent US20150329642A1.
